Numbers sourced from patent US7253281B2.

study_system: human 5-HT2A receptor (CHO cells) (Homo sapiens, UniProt P28223)
Sequence (P28223 whole entry): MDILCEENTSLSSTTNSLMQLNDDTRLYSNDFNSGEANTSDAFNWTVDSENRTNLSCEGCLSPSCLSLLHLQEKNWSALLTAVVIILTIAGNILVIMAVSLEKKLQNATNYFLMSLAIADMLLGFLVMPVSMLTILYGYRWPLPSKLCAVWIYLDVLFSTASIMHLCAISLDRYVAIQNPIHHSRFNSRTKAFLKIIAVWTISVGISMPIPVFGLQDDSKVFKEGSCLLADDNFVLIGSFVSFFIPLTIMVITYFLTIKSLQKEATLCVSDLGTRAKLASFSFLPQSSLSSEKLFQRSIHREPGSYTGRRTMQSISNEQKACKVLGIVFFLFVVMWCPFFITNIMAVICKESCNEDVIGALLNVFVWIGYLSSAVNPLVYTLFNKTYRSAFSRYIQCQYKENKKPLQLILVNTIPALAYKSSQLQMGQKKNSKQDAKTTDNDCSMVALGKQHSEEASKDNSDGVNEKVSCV
protocol_notes: Functional activity, FLIPR calcium assay, h5-HT2A
experimental_setup: FLIPR, CHO cells
metric: pEC50
# pEC50: negative log10 of molar concentration; output just the value

// sample `C[C@@H]1CNC[C@H]2Cc3ccc(Cl)cc3N21` , its pEC50 was 7.72
